# PROTOCOL_DETAILS: PAMPA permeability of pure compounds under sink conditions
# Format: in vitro ADME
# MEASUREMENT_SETUP: detergents in donor and acceptor wells (sink conditions)
Square brackets hold non-standard residues; d marks the D form. Peptide text beside a SMILES is read from it. Gly(N-CH2-oxan-4-yl) = O=C(O)CNCC1CCOCC1; NCyclohexylmethylGly = O=C(O)CNCC1CCCCC1; NMeL = CN[C@@H](CC(C)C)C(=O)O; NMeA = CN[C@@H](C)C(=O)O; NEtG = CCNCC(=O)O
QUANTITY: PAMPA Perm. (×10⁻⁶ cm/s)
Give your result in ×10⁻⁶ cm/s as a bare value.

PAMPA Perm. reported for this molecule CCN1CC(=O)N[C@@H](CC(C)C)C(=O)N(C)[C@@H](C)C(=O)N[C@@H](CC(C)C)C(=O)N2CCC[C@@H]2C(=O)N(CC2CCOCC2)CC(=O)N[C@@H](CC(C)C)C(=O)N(C)[C@@H](C)C(=O)N[C@@H](C)C(=O)N2CCC[C@@H]2C1=O [Compound A03] (cyclo([NEtG]L[NMeA]L[dP][Gly(N-CH2-oxan-4-yl)]L[NMeA]A[dP])) : 17.2

PAMPA Perm. reported for this molecule CCN1CC(=O)N[C@@H](CC(C)C)C(=O)N(C)[C@@H](C)C(=O)N[C@@H](CC(C)C)C(=O)N2CCC[C@@H]2C(=O)N(CC2CCCCC2)CC(=O)N[C@@H](CC(C)C)C(=O)N(C)[C@@H](C)C(=O)N[C@@H](Cc2ccccc2)C(=O)N2CCC[C@@H]2C1=O [Compound A08] (cyclo(F[dP][NEtG]L[NMeA]L[dP][NCyclohexylmethylGly]L[NMeA])) : 18.8

PAMPA Perm. reported for this molecule CCN1CC(=O)N[C@@H](CC(C)C)C(=O)N2CCC[C@@H]2C(=O)N(C)[C@@H](CC(C)C)C(=O)N[C@@H](C)C(=O)N(CC2CCOCC2)CC(=O)N[C@@H](Cc2ccccc2)C(=O)N2CCC[C@@H]2C(=O)N(C)[C@@H](CC(C)C)C(=O)N[C@@H](C)C1=O [Compound B09] (cyclo(A[NEtG]L[dP][NMeL]A[Gly(N-CH2-oxan-4-yl)]F[dP][NMeL])) : 1.4

PAMPA Perm. reported for this molecule CCN1CC(=O)N[C@@H](CC(C)C)C(=O)N(C)[C@@H](C)C(=O)N[C@@H](CC(C)C)C(=O)N2CCC[C@@H]2C(=O)N(CC2CCOCC2)CC(=O)N[C@@H](CC(C)C)C(=O)N(C)[C@@H](C)C(=O)N[C@@H](Cc2ccccc2)C(=O)N2CCC[C@@H]2C1=O [Compound A09] (cyclo([NEtG]L[NMeA]L[dP][Gly(N-CH2-oxan-4-yl)]L[NMeA]F[dP])) : 35.7
